# study-system: mouse ACVR2A (mouse, UniProt P27038 20-135, limits assumed); further: test concentration or dose not given here
# Sequence (P27038 20-135 limits assumed): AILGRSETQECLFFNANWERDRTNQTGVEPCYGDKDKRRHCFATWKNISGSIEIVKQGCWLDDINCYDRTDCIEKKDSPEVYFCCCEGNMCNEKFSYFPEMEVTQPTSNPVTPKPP
# experiment: ELISA
observable: optical density (OD)
One number for each entry, in OD.

binder: 365_G12 (antibody, V domains shown, VH/VL only) VH: EVQLLESGGGLVQPGGSLRLSCAASGFTFSSYGMNWVRQAPGKGLEWVAGINYNSGYTSYADSVKGRFTISRDNSKNTLYLQMNSLRAEDTAVYYCARSATWHDTALDYWGQGTLVTVSS VL: DIQMTQSPSSLSASVGDRVTITCRASQSILSYVNWYQQKPGKAPKLVIYAATSRASGVPSRFSGSGSGTDFTLTISSLQPEDFATYYCQQSYSNPLTFGGGTKVEIK
optical density, OD: 2.75

binder: 376_C12 (antibody, V domains shown, VH/VL only) VH: EVQLLESGGGLVQPGGSLRLSCAASGFTFSSYSMNWVRQAPGKGLEWVAGINYNGGYTGYADSVKGRFTISRDNSKNTLYLQMNSLRAEDTAVYYCARSANWHDTALDYWGQGTLVTVSS VL: DIQMTQSPSSLSASVGDRVTITCRASQSILTYVNWYQQKPGKAPKLLIYAATSRASGVPSRFSGSGSGTDFTLTISSLQPEDFATYYCQQSYDSPLTFGGGTKVEIK
optical density, OD: 3.32

Proceed to the following item.
# input binder: 374_A11 (antibody, V domains shown, VH/VL only) VH: EVQLLESGGGLVQPGGSLRLSCAASGFTFSDYSMNWVRQAPGKGLEWVANINYNSGYKGYADSVKGRFTISRDNSKNTLYLQMNSLRAEDTAVYYCARSATWHDTHLDYWGQGTLVTVSS VL: DIQMTQSPSSLSASVGDRVTITCRASQSILSYVNWYQQKPGKAPKLVIYAATSRASGVPSRFSGSGSGTDFTLTISSLQPEDFATYYCQQSYSSPLTFGGGTKVEIK ; wanted: its optical density
3.72
